# System: Acinetobacter baumannii
# ASSAY OVERVIEW: Antibacterial activity against Acinetobacter baumannii ATCC 19606 assessed as bacterial growth inhibition
# Format: functional
# CONDITION SUMMARY: ATCC 19606 = CIP 70.34 = JCM 6841
# maps each entry to its MIC

COMPOUND	MIC
C/C=C1\NC(=O)C(NC(=O)c2cn3c4c(c(N5CCN(C)CC5)c(F)cc4c2=O)OC[C@@H]3C)C(O)CNC(=O)C(C(O)CN)NC(=O)C(C(O)CN)NC(=O)[C@H](CCCNC(=N)N)NC(=O)[C@H](CC(C)C)NC(=O)[C@H](CCN)NC1=O (stereo partly specified)	> 128 µg/mL
C/C=C1\NC(=O)C(NC(=O)CCc2nnc(-c3ccc(OC)cc3)[nH]2)C(O)CNC(=O)C(C(O)CN)NC(=O)C(C(O)CN)NC(=O)[C@H](CCCNC(=N)N)NC(=O)[C@H](CC(C)C)NC(=O)[C@H](CCN)NC1=O (stereo partly specified)	> 256 µg/mL
C/C=C1\NC(=O)C(NC(=O)c2cn3c4c(c(F)c(F)cc4c2=O)OC[C@@H]3C)C(O)CNC(=O)C(C(O)CN)NC(=O)C(C(O)CN)NC(=O)[C@H](CCCNC(=N)N)NC(=O)[C@H](CC(C)C)NC(=O)[C@H](CCN)NC1=O (stereo partly specified)	> 64 µg/mL

MIC reported for this compound C/C=C1\NC(=O)C(NC(=O)c2ccc(-c3nnn(CC(=O)N(C)C)n3)cc2)C(O)CNC(=O)C(C(O)CN)NC(=O)C(C(O)CN)NC(=O)[C@H](CCCNC(=N)N)NC(=O)[C@H](CC(C)C)NC(=O)[C@H](CCN)NC1=O (stereo partly specified) : > 256 µg/mL

MIC reported for this compound C/C=C1\NC(=O)C(NC(=O)Cc2ccc(NC(=O)Nc3c(C)cccc3C)c(Cl)c2)C(O)CNC(=O)C(C(O)CN)NC(=O)C(C(O)CN)NC(=O)[C@H](CCCNC(=N)N)NC(=O)[C@H](CC(C)C)NC(=O)[C@H](CCN)NC1=O (stereo partly specified) : > 256 µg/mL

MIC reported for this compound C/C=C1\NC(=O)C(NC(=O)C2CCCN(C(=O)c3ccc(Cl)c(Cl)c3)C2)C(O)CNC(=O)C(C(O)CN)NC(=O)C(C(O)CN)NC(=O)[C@H](CCCNC(=N)N)NC(=O)[C@H](CC(C)C)NC(=O)[C@H](CCN)NC1=O (stereo partly specified) : > 256 µg/mL
